The values you see were collected from patent US6410585B1.

# MEASURED_TARGET: rat PTP1 (Rattus norvegicus, UniProt P20417)
# Construct: a C-terminal truncation of rat PTP1 (amino acid residues 1-322); GST (N, cleaved yes); made in house; host or cells: E. coli strain TG-1 (pGEX-2T)
# Sequence (P20417 1-322): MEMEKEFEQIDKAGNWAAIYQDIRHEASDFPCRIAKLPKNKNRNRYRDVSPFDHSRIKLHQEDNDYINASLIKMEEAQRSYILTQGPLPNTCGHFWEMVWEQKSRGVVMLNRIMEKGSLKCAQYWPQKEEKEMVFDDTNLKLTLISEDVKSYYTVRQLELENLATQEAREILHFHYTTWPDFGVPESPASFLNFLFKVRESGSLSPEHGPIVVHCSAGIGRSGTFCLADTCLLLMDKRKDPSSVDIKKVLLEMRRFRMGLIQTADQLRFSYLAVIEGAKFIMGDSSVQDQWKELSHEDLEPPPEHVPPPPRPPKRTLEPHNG
# METHOD_SUMMARY: PTP1 assay, pNPP hydrolysis (rate of change in A405)
# Type: biochemical
# EXPERIMENTAL_CONDITIONS: Conc 100 uM; pNPP hydrolysis; Table 1; read-out: PTP1 Inhib % Inhib
# Lookup of reported inhibition at 100 µM keyed by entry
Answer in %, number only, no unit symbol.

MOLECULE: CCCCCNC(=O)[C@H](Cc1ccc(OC(C(=O)O)C(=O)O)cc1)NC(=O)[C@H](CC(=O)O)NC(=O)CCCCC
MEASURED_TARGET: rat PTP1 (Rattus norvegicus, UniProt P20417)
MEASURED_RESULT: 91
//
MOLECULE: CCCCCNC(=O)C(Cc1ccc(OC(COO)COO)cc1)NC(=O)Nc1cc(C(=O)O)cc(C(=O)O)c1 (stereo not shown)
MEASURED_TARGET: rat PTP1 (Rattus norvegicus, UniProt P20417)
MEASURED_RESULT: 94

Lab note: need inhibition at 100 µM with rat PTP1 (Rattus norvegicus, UniProt P20417) for entry CCCCCNC(=O)[C@H](Cc1ccc(C=C(C(=O)O)C(=O)O)cc1)NC(=O)CCC(=O)O , please look it up.
33

Next entry: O=C(O)CCC(=O)N[C@@H](Cc1ccc(OC(C(=O)O)C(=O)O)cc1)C(=O)NCCC(c1ccccc1)c1ccccc1
45
